# EXPERIMENTAL SYSTEM: T1, Vps4^E233Q (yeast, UniProt P52917 1-437, E233Q)
# T1 sequence: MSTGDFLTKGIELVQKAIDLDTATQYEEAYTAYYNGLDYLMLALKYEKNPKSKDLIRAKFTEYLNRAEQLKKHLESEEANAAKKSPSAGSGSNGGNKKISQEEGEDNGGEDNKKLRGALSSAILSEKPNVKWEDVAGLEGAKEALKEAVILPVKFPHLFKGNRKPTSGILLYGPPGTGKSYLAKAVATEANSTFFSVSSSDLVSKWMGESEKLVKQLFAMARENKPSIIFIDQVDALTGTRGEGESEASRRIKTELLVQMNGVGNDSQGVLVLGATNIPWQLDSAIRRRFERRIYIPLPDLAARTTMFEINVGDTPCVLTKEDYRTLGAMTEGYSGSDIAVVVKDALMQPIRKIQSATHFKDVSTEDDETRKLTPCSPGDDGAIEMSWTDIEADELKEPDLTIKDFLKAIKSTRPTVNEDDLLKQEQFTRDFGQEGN
# ASSAY EXPLANATION: pull-down
QUANTITY MEASURED: binding result

// sample GST-Vta1^S306A (natural protein) MASNAARVVATAKDFDKVGLGIIGYYLQLYAVELILSEEDRSQEMTALATELLDTIEAFKKEIGGESEAEDSDKSLHVMNTLIHDQEKAKIYMLNFTMSLYNEKLKQLKDGPWDVMLKRSLWCCIDLFSCILHLWKENISETSTNSLQKRIKYCKIYLSKLAKGEIGSSDEKTLDYADFADDSEEIKDEDVDHQTSDLENNNNDKVEGLAPKDQTTSYEPVDEVPEFIDDADSVNEEEQTVDKNEDAITKDEQQVVKKEVDLTRPSAPSEPAAAEHKSYTKDELTKIMDRASKIEQIQKLAKYAIAALNYEDLPTAKDELTKALDLLNSI , its binding result was binds

// sample GST-Vta1^K322A (natural protein) MASNAARVVATAKDFDKVGLGIIGYYLQLYAVELILSEEDRSQEMTALATELLDTIEAFKKEIGGESEAEDSDKSLHVMNTLIHDQEKAKIYMLNFTMSLYNEKLKQLKDGPWDVMLKRSLWCCIDLFSCILHLWKENISETSTNSLQKRIKYCKIYLSKLAKGEIGSSDEKTLDYADFADDSEEIKDEDVDHQTSDLENNNNDKVEGLAPKDQTTSYEPVDEVPEFIDDADSVNEEEQTVDKNEDAITKDEQQVVKKEVDLTRPSAPSEPAAAEHKSYTKDELTKIMDRASKIEQIQKLAKYAISALNYEDLPTAKDELTAALDLLNSI , its binding result was binds
